All values here come from ChEMBL document CHEMBL1275561.

test system: Parabacteroides merdae; assay: Antimicrobial activity against Bacteroides merdae by agar dilution method; assay type: functional
observedProperty: MIC50 (µg/mL)
// units = µg/mL; emit number, no label

Sample records with MIC50:
C[C@@H](O)[C@H]1C(=O)N2C(C(=O)O)=C(S[C@@H]3CN[C@H](C(=O)Nc4cccc(C(=O)O)c4)C3)[C@H](C)[C@H]12: 1
C[C@@H](O)[C@H]1C(=O)N2C(C(=O)O)=C(S[C@@H]3CN[C@H](C(=O)N(C)C)C3)[C@H](C)[C@H]12: 0.25
CCC[C@@H]1C[C@@H](C(=O)N[C@@H]([C@H]2O[C@H](SC)[C@H](O)[C@@H](O)[C@H]2O)[C@H](C)Cl)N(C)C1: 1
C[C@@H](O)[C@H]1C(=O)N2C(C(=O)O)=C(S[C@@H]3CN[C@H](CNS(N)(=O)=O)C3)[C@H](C)[C@H]12: 0.5
COc1c(N2C[C@@H]3CCCN[C@@H]3C2)c(F)cc2c(=O)c(C(=O)O)cn(C3CC3)c12: 2
CO[C@@]1(NC(=O)Cc2cccs2)C(=O)N2C(C(=O)O)=C(COC(N)=O)CS[C@@H]21: 16

// next item, MIC50 requested
What value of MIC50 has been recorded for this entry: C[C@@H](O)[C@H]1C(=O)N2C(C(=O)O)=C(SCCNC=N)C[C@H]12 [IMIPENEM ANHYDROUS] 0.5

----------
tested on: Bacteroides thetaiotaomicron; assay: Antimicrobial activity against Bacteroides thetaiotaomicron by agar dilution method; type: functional
observedProperty: MIC90 (µg/mL)
// units = µg/mL; emit number, no label

Sample records with MIC90:
COc1c(N2C[C@@H]3CCCN[C@@H]3C2)c(F)cc2c(=O)c(C(=O)O)cn(C3CC3)c12 [MOXIFLOXACIN]: 32
C[C@@H](O)[C@H]1C(=O)N2C(C(=O)O)=C(S[C@@H]3CN[C@H](C(=O)N(C)C)C3)[C@H](C)[C@H]12 [MEROPENEM]: 2
C[C@@H](O)[C@H]1C(=O)N2C(C(=O)O)=C(SCCNC=N)C[C@H]12 [IMIPENEM ANHYDROUS]: 2

// next item, MIC90 requested
What value of MIC90 has been recorded for this entry: CCC[C@@H]1C[C@@H](C(=O)N[C@@H]([C@H]2O[C@H](SC)[C@H](O)[C@@H](O)[C@H]2O)[C@H](C)Cl)N(C)C1 [CLINDAMYCIN] 128

----------
Reported values of Activity for individual entries
tested on: Cutibacterium acnes; assay: Antimicrobial activity against Propionibacterium acnes assessed as resistant isolates by agar dilution method; assay type: functional
// units = %; emit number, no label

C[C@@H](O)[C@H]1C(=O)N2C(C(=O)O)=C(S[C@@H]3CN[C@H](C(=O)N(C)C)C3)[C@H](C)[C@H]12: 0
C[C@@H](O)[C@H]1C(=O)N2C(C(=O)O)=C(S[C@@H]3CN[C@H](CNS(N)(=O)=O)C3)[C@H](C)[C@H]12: 0

// next item, Activity requested
What value of Activity has been recorded for this entry: COc1c(N2C[C@@H]3CCCN[C@@H]3C2)c(F)cc2c(=O)c(C(=O)O)cn(C3CC3)c12 0

----------
Reported values of MIC90 for individual entries
test system: Bacteroides fragilis; assay: Antimicrobial activity against Bacteroides fragilis by agar dilution method; format: functional
// units = µg/mL; emit number, no label

C[C@@H](O)[C@H]1C(=O)N2C(C(=O)O)=C(S[C@@H]3CN[C@H](C(=O)N(C)C)C3)[C@H](C)[C@H]12: 1
COc1c(N2C[C@@H]3CCCN[C@@H]3C2)c(F)cc2c(=O)c(C(=O)O)cn(C3CC3)c12: 8
CO[C@@]1(NC(=O)Cc2cccs2)C(=O)N2C(C(=O)O)=C(COC(N)=O)CS[C@@H]21: 32
CCC[C@@H]1C[C@@H](C(=O)N[C@@H]([C@H]2O[C@H](SC)[C@H](O)[C@@H](O)[C@H]2O)[C@H](C)Cl)N(C)C1: 128
C[C@@H](O)[C@H]1C(=O)N2C(C(=O)O)=C(SCCNC=N)C[C@H]12 [IMIPENEM ANHYDROUS]: 1
C[C@@H](O)[C@H]1C(=O)N2C(C(=O)O)=C(S[C@@H]3CN[C@H](C(=O)Nc4cccc(C(=O)O)c4)C3)[C@H](C)[C@H]12: 2

// next item, MIC90 requested
What value of MIC90 has been recorded for this entry: C[C@@H](O)[C@H]1C(=O)N2C(C(=O)O)=C(S[C@@H]3CN[C@H](CNS(N)(=O)=O)C3)[C@H](C)[C@H]12 1
